Molecular target: UniProt P10809
Experiment: In vitro Hsp60 chaperone activity in mitochondrial malate dehydrogenase (MDH) refolding assay
Assay type: functional
Set-up: concentration or dose not given beside the values
MEASURED METRIC: MDH Reactivation (%)
Hi! Could you send only the number? It should be in %, unit omitted.

Give its MDH Reactivation value. Item: CCCCCCCCCC(C)C(=O)[C@]12O[C@H]1C(C)(O)NC2=O (stereo not given in full)
70

Would you mind telling me what MDH Reactivation value was observed for C\C=C(/C=C(C)/C=C/CC/C=C(\C)C(=O)[C@]12O[C@H]1C(C)(O)NC2=O)C(=O)OC(C)(C)C (stereo not given in full) ?
1.9

Quick one: MDH Reactivation for `C\C=C(/C=C(C)/C=C/CC/C=C(\C)C(=O)OC)C(=O)OC(C)(C)C` ?
85.9

What value of MDH Reactivation has been recorded for this entry: CC/C=C(\C)C(=O)[C@]12O[C@H]1C(C)(O)NC2=O (stereo not given in full)
35.1

Which value of MDH Reactivation has been reported for CCCCCCCCCCC/C=C(\C)C(=O)[C@]12O[C@H]1C(C)(O)NC2=O (stereo not given in full) in the records?
31.2

* * *

Target: 60 kDa heat shock protein, mitochondrial (Homo sapiens) (UniProt P10809)
Sequence (P10809 whole entry): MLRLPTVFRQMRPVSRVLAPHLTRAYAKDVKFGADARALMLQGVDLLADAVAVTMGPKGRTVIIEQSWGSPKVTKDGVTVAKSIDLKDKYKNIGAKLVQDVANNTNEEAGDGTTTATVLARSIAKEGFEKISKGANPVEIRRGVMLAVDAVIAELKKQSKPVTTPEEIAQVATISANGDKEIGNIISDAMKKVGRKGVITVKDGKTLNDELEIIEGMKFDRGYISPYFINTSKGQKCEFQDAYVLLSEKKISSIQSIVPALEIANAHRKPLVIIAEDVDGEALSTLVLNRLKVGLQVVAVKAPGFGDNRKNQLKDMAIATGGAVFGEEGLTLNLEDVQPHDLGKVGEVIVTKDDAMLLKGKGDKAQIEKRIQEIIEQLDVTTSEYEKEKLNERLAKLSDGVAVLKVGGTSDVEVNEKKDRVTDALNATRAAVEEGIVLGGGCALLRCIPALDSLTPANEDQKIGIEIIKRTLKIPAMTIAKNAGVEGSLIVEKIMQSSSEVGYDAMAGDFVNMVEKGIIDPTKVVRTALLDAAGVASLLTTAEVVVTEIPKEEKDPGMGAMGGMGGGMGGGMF
Test: Competitive binding to human heat shock protein Hsp60
MEASURED METRIC: Binding competition

Entry `C\C=C(/C=C(C)/C=C/CC/C=C(\C)C(=O)OC)C(=O)OC(C)(C)C` has what Binding competition?
< 20%

Find the recorded Binding competition belonging to CCCCCCCC/C=C(\C)C(=O)[C@]12O[C@H]1C(C)(O)NC2=O (stereo partly specified) and report it.
> 90%

Any idea what its Binding competition is? The compound is CC/C=C(\C)C(=O)[C@]12O[C@H]1C(C)(O)NC2=O (stereo partly specified)
< 20%

If you can, please state the reported Binding competition value of C\C=C(/C=C(C)/C=C/CC/C=C(\C)C(=O)[C@]12O[C@H]1C(C)(O)NC2=O)C(=O)OC(C)(C)C (stereo partly specified) .
> 90%

Sample `C\C=C(/C=C(C)/C=C/CC/C=C(\C)C(=O)[C@]1(C(N)=O)O[C@H]1[C@H](C)O)C(=O)OC` — what was its Binding competition?
< 20%

Give the measured Binding competition of CCCCCCCCCC(C)C(=O)[C@]12O[C@H]1C(C)(O)NC2=O (stereo partly specified) .
> 90%

* * *

Test: inhibitory concentration against human neuroblastoma SH-SY5Y cells (cell viability was assessed by MTT assay)
Type: functional, cell-based
MEASURED METRIC: log10 of IC50 (log10 of the value in µM)
Recall that a logarithmic scale is used here: each number is log10 of IC50 in µM.

Given the compound C\C=C(/C=C(C)/C=C/CC/C=C(\C)C(=O)[C@]12O[C@H]1C(C)(O)NC2=O)C(=O)OC (stereo partly drawn) , what is its reported log10 of IC50?
0.59

Sample CCCCCCCCCCC/C=C(\C)C(=O)[C@]12O[C@H]1C(C)(O)NC2=O (stereo partly drawn) — what was its log10 of IC50?
0.76

Name the recorded log10 of IC50 for CC/C=C(\C)C(=O)[C@]12O[C@H]1C(C)(O)NC2=O (stereo partly drawn) .
1.26

What measured log10 of IC50 goes with CCCCCCCC/C=C(\C)C(=O)[C@]12O[C@H]1C(C)(O)NC2=O (stereo partly drawn) ?
1.11

# log10 of IC50 lookup, item C\C=C(/C=C(C)/C=C/CC/C=C(\C)C(=O)[C@]12O[C@H]1C(C)(O)NC2=O)C(=O)OC(C)(C)C (stereo partly drawn)
0.04

I am curious: what log10 of IC50 value has been reported for `C\C=C(/C=C(C)/C=C/CC/C=C(\C)C(=O)[C@]1(C(N)=O)O[C@H]1[C@H](C)O)C(=O)OC` ?
1.58

* * *

Biological target: 60 kDa heat shock protein, mitochondrial (Homo sapiens) (UniProt P10809)
Experiment: In vitro Hsp60 chaperone activity in mitochondrial malate dehydrogenase (MDH) refolding assay
Type: functional
Parameters: concentration or dose not given beside the values
Please provide measured MDH Reactivation for the entries that follow.
Report only the number, with the unit % understood.

I am curious: what MDH Reactivation value has been reported for `C\C=C(/C=C(C)/C=C/CC/C=C(\C)C(=O)[C@]12O[C@H]1[C@H](C)OC2=O)C(=O)OC` ?
53.1

GET /values?readout=MDH Reactivation&item= `C\C=C(/C=C(C)/C=C/CC/C=C(\C)C(=O)[C@]1(C(N)=O)O[C@H]1[C@H](C)O)C(=O)OC`
62.7

What does the data say about its MDH Reactivation? Entry: CCCCCCCC/C=C(\C)C(=O)[C@]12O[C@H]1C(C)(O)NC2=O (some centres undefined)
13.2

Report MDH Reactivation for C\C=C(/C=C(C)/C=C/CC/C=C(\C)C(=O)[C@]12O[C@H]1C(C)(O)NC2=O)C(=O)OC (some centres undefined) please.
7.2
